tested on: SW 1271 complex spheroids, viability; assay: Anticancer human tumor SW 1271 cell line growth inhibition [LSD1]; settings: second compound 0.316 µM; first compound 0.03 µM; stronger effect = lower value;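 also: spheroids exposed to agents for 7 days before luminescence read; 100% = DMSO vehicle control viability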
Attribute: viability, T/C
ATTRIBUTE MEASURED: viability, T/C

# COMPOUND, RESULT
rows = [
    ("Nc1ccccc1NC(=O)c1ccc(CNC(=O)OCc2cccnc2)cc1 + NC1CC1c1ccc(-c2cccc(O)c2)cc1", "75.3%"),
    ("O=C(C=Cc1cccc(S(=O)(=O)Nc2ccccc2)c1)NO + NC1CC1c1ccc(-c2cccc(O)c2)cc1", "61.8%"),
    ("CCN(c1cc(-c2ccc(CN3CCOCC3)cc2)cc(C(=O)NCc2c(C)cc(C)[nH]c2=O)c1C)C1CCOCC1 + NC1CCC(NC2CC2c2ccccc2)CC1", "113%"),
    ("CCc1c2c(nc3ccc(O)cc13)-c1cc3c(c(=O)n1C2)COC(=O)[C@]3(O)CC + NC1CCC(NC2CC2c2ccccc2)CC1", "9.7%"),
]

###

system: SW 1271 complex spheroids, viability; experiment: Anticancer human tumor SW 1271 cell line growth inhibition [LSD1]; details: second compound 0.316 µM; first compound 0.003 µM; stronger effect = lower value;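 also: spheroids exposed to agents for 7 days before luminescence read; 100% = DMSO vehicle control viability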

# COMPOUND, UNIT ABBREV, viability, T/C
measured = [
    ("Nc1ccn(C2OC(CO)C(O)C2(F)F)c(=O)n1 (stereo unspecified) + NC1CCC(NC2CC2c2ccccc2)CC1", "%", 71.2),
    ("CCc1c2c(nc3ccc(O)cc13)-c1cc3c(c(=O)n1C2)COC(=O)[C@]3(O)CC + NC1CC1c1ccc(-c2cccc(O)c2)cc1", "%", 45.4),
    ("CCc1c2c(nc3ccc(O)cc13)-c1cc3c(c(=O)n1C2)COC(=O)[C@]3(O)CC + NC1CCC(NC2CC2c2ccccc2)CC1", "%", 42.2),
    ("Nc1ccn(C2OC(CO)C(O)C2(F)F)c(=O)n1 (stereo unspecified) + NC1CC1c1ccc(-c2cccc(O)c2)cc1", "%", 54.7),
    ("Nc1ncn(C2CC(O)C(CO)S2)c(=O)n1 (stereo unspecified) + NC1CCC(NC2CC2c2ccccc2)CC1", "%", 92),
    ("Nc1ncn(C2CC(O)C(CO)S2)c(=O)n1 (stereo unspecified) + NC1CC1c1ccc(-c2cccc(O)c2)cc1", "%", 83.6),
]

###

// values below are reported viability, T/C
system: SW 1271 complex spheroids, viability; experiment: Anticancer human tumor SW 1271 cell line growth inhibition [LSD1]; details: second compound 0.1 µM; first compound 0.01 µM; stronger effect = lower value;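 also: spheroids exposed to agents for 7 days before luminescence read; 100% = DMSO vehicle control viability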
ATTRIBUTE MEASURED: viability, T/C (%)

# MOLECULE, NUMBER
measured = [
    ("Nc1ncn(C2CC(O)C(CO)O2)c(=O)n1 (centres undefined) + NC1CCC(NC2CC2c2ccccc2)CC1", 95.2),
    ("CC(C)CC(NC(=O)C(Cc1ccccc1)NC(=O)c1cnccn1)B(O)O (centres undefined) + NC1CC1c1ccc(-c2cccc(O)c2)cc1", 0.28),
    ("Cn1ncnc1C1c2n[nH]c(=O)c3cc(F)cc(c23)NC1c1ccc(F)cc1 (centres undefined) + NC1CC1c1ccc(-c2cccc(O)c2)cc1", 85.8),
    ("CC1COCCN1c1cc(-c2ccnn2C)c2ccnc(-c3ccn[nH]3)c2n1 (centres undefined) + NC1CC1c1ccc(-c2cccc(O)c2)cc1", 62.7),
]
